Source of measurements: paper PMC3679108

- SYSTEM_NAME: chicken GCRP receptor (chicken)
- PROTOCOL_NOTES: radioligand binding; competitive displacement on HEK293T cells transfected with GCRPR (300 ng DNA/well, 12-well plates); 100,000 cpm 125I-chGCRP without or with various concentrations of cold peptides, 1 h, binding buffer (serum-free DMEM with 0.1% BSA, pH 7.4); IC50 by nonlinear regression
RECORDED_ENDPOINT: pIC50
Field pIC50 (float): negative decimal logarithm of the concentration in molar.

Kindly note the recorded pIC50 for HSEGTFTSDFTRYLDKMKAKDFVHWLINT [Chicken GCRP] , which is 7.36
